System: Enterococcus faecium
method: Antibacterial activity against glycopeptide-resistant Enterococcus faecium Efm-HS-0847 vanM after 24 hrs by broth microdilution method
Assay type: functional
particulars: Efm-HS-0847, 24 h
Please provide measured MIC for the entries that follow.
One number for each entry, in µg/mL.

| compound | recorded.result |
| --- | --- |
| CN[C@H](CC(C)C)C(=O)N[C@H]1C(=O)N[C@@H](CC(N)=O)C(=O)N[C@H]2C(=O)N[C@H]3C(=O)N[C@H](C(=O)N[C@H](C(=O)O)c4cc(O)c(CNCP(=O)(O)O)c(O)c4-c4cc3ccc4O)[C@H](O)c3ccc(c(Cl)c3)Oc3cc2cc(c3O[C@@H]2O[C@H](CO)[C@@H](O)[C@H](O)[C@H]2O[C@H]2C[C@](C)(NCc3ccc(-c4ccc(Cl)cc4)cc3)[C@H](O)[C@H](C)O2)Oc2ccc(cc2Cl)[C@H]1O | 2 |

Request: Which MIC value is on record for CCCCCCCCCCNCCN[C@@]1(C)C[C@H](O[C@H]2[C@H](Oc3c4cc5cc3Oc3ccc(cc3Cl)[C@@H](O)[C@@H](NC(=O)[C@@H](CC(C)C)NC)C(=O)N[C@@H](CC(N)=O)C(=O)N[C@H]5C(=O)N[C@H]3C(=O)N[C@H](C(=O)N[C@H](C(=O)O)c5cc(O)c(CN[C@@H]6C(O)O[C@H](CO)[C@@H](O)[C@@H]6O)c(O)c5-c5cc3ccc5O)[C@H](O)c3ccc(c(Cl)c3)O4)O[C@H](CO)[C@@H](O)[C@@H]2O)O[C@@H](C)[C@H]1O (some centres not stated) ?
Response: 32

----------
method: AUC (infinity) in CD1 mouse at 5 mg/kg, iv
Format: ADME, organism-based
Set-up: dose 5 mg/kg, route intravenous, time infinity
particulars: in vivo
measured.metric: AUC(0-inf)
I'd appreciate it if you included the unit after the number.

Please state AUC(0-inf) for every compound in the list that follows.
1. CN[C@H](CC(C)C)C(=O)N[C@H]1C(=O)N[C@@H](CC(N)=O)C(=O)N[C@H]2C(=O)N[C@H]3C(=O)N[C@H](C(=O)N[C@H](C(=O)O)c4cc(O)cc(O)c4-c4cc3ccc4O)[C@H](O)c3ccc(c(Cl)c3)Oc3cc2cc(c3O[C@@H]2O[C@H](CO)[C@@H](O)[C@H](O)[C@H]2O[C@H]2C[C@](C)(NCc3ccc(-c4ccc(C(F)(F)F)cc4)cc3)[C@H](O)[C@H](C)O2)Oc2ccc(cc2Cl)[C@H]1O
2. CN[C@H](CC(C)C)C(=O)N[C@H]1C(=O)N[C@@H](CC(N)=O)C(=O)N[C@H]2C(=O)N[C@H]3C(=O)N[C@H](C(=O)N[C@H](C(=O)O)c4cc(O)c(CN[C@H]5C(O)O[C@H](CO)[C@H](O)[C@@H]5O)c(O)c4-c4cc3ccc4O)[C@H](O)c3ccc(c(Cl)c3)Oc3cc2cc(c3O[C@@H]2O[C@H](CO)[C@@H](O)[C@H](O)[C@H]2O[C@H]2C[C@](C)(NCc3ccc(-c4ccc(C(F)(F)F)cc4)cc3)[C@H](O)[C@H](C)O2)Oc2ccc(cc2Cl)[C@H]1O (stereo not given in full)
3. CN[C@H](CC(C)C)C(=O)N[C@H]1C(=O)N[C@@H](CC(N)=O)C(=O)N[C@H]2C(=O)N[C@H]3C(=O)N[C@H](C(=O)N[C@H](C(=O)O)c4cc(O)c(CNCCO[C@@H]5O[C@H](CO)[C@H](O)[C@H](O)[C@H]5O)c(O)c4-c4cc3ccc4O)[C@H](O)c3ccc(c(Cl)c3)Oc3cc2cc(c3O[C@@H]2O[C@H](CO)[C@@H](O)[C@H](O)[C@H]2O[C@H]2C[C@](C)(NCc3ccc(-c4ccc(C(F)(F)F)cc4)cc3)[C@H](O)[C@H](C)O2)Oc2ccc(cc2Cl)[C@H]1O
4. CN[C@H](CC(C)C)C(=O)N[C@H]1C(=O)N[C@@H](CC(N)=O)C(=O)N[C@H]2C(=O)N[C@H]3C(=O)N[C@H](C(=O)N[C@H](C(=O)O)c4cc(O)c(CN[C@H]5C(O)O[C@H](CO)[C@H](O)[C@@H]5O)c(O)c4-c4cc3ccc4O)[C@H](O)c3ccc(c(Cl)c3)Oc3cc2cc(c3O[C@@H]2O[C@H](CO)[C@@H](O)[C@H](O)[C@H]2O[C@H]2C[C@](C)(NCc3ccc(-c4ccc(Cl)cc4)cc3)[C@H](O)[C@H](C)O2)Oc2ccc(cc2Cl)[C@H]1O (stereo not given in full)
5. CN[C@H](CC(C)C)C(=O)N[C@H]1C(=O)N[C@@H](CC(N)=O)C(=O)N[C@H]2C(=O)N[C@H]3C(=O)N[C@H](C(=O)N[C@H](C(=O)O)c4cc(O)c(CNCCCNC(=O)[C@H](O)[C@@H](O)[C@H](O)[C@H](O)CO)c(O)c4-c4cc3ccc4O)[C@H](O)c3ccc(c(Cl)c3)Oc3cc2cc(c3O[C@@H]2O[C@H](CO)[C@@H](O)[C@H](O)[C@H]2O[C@H]2C[C@](C)(NCc3ccc(-c4ccc(C(F)(F)F)cc4)cc3)[C@H](O)[C@H](C)O2)Oc2ccc(cc2Cl)[C@H]1O

Response:
1: 67500 ng·h/mL; 2: 24300 ng·h/mL; 3: 20000 ng·h/mL; 4: 12200 ng·h/mL; 5: 13400 ng·h/mL
